EXPERIMENTAL DETAILS: Solubility estimate by adding solvent aliquots to weighed solid, dissolution judged visually
EXPERIMENTAL CONTEXT: ethyl acetate, organic solvent or mixture, thermodynamic from solid
Structures can show the parent of a compound that is named as a salt.
READOUT NAME: solubility

Measured solubility, COc1cc(CCN)c(OC)cc1Br [2C-B.HCl] : < 2000 µg/mL

====

EXPERIMENTAL DETAILS: Estimated solubilities of 2C-B HCl in solvents
EXPERIMENTAL CONTEXT: ACN, organic solvent or mixture, thermodynamic from solid
READOUT NAME: solubility

COc1cc(CCN)c(OC)cc1Br.Cl [2C-B HCl, 4-bromo-2,5-dimethoxyphenethylamine HCl] has a reported solubility of < 1 mg/mL

====

EXPERIMENTAL DETAILS: Estimated solubilities of 2C-B HCl in solvents
EXPERIMENTAL CONTEXT: acetone, organic solvent or mixture, thermodynamic from solid
READOUT NAME: solubility

COc1cc(CCN)c(OC)cc1Br.Cl [2C-B HCl, 4-bromo-2,5-dimethoxyphenethylamine HCl] has a reported solubility of < 2000 µg/mL

====

EXPERIMENTAL DETAILS: Dynamic vapor sorption/desorption (DVS), hygroscopicity
Assay type: physicochemical
EXPERIMENTAL CONTEXT: 5-95% RH
READOUT NAME: Hygroscopicity: weight gain

Examples with their reported Hygroscopicity: weight gain follow.
COc1cc(CCN)c(OC)cc1Br.O=C(O)CC(O)(CC(=O)O)C(=O)O [Citrate (Form 2), 2C-B Citrate] :: 5-95% RH: 0.5%
COc1cc(CCN)c(OC)cc1Br.O=C(O)c1cc(O)ccc1O [Gentisate, 2C-B gentisate] :: 5-95% RH: 0.2%
COc1cc(CCN)c(OC)cc1Br.O=C(O)C(O)C(O)C(=O)O [Tartrate (Form 1)] :: 5-95% RH: 0.1%

According to the records, this molecule COc1cc(CCN)c(OC)cc1Br.O=S(=O)(O)c1ccccc1 [Besylate (Form 1), 2C-B besylate] displays Hygroscopicity: weight gain of 5-95% RH: 0.7%

====

EXPERIMENTAL DETAILS: Estimated solubilities of 2C-B HCl in solvents
EXPERIMENTAL CONTEXT: EtOH, organic solvent or mixture, thermodynamic from solid
READOUT NAME: solubility (mg/mL)
One number for each entry, in mg/mL.

Value of solubility reported for the compound COc1cc(CCN)c(OC)cc1Br.Cl [2C-B HCl, 4-bromo-2,5-dimethoxyphenethylamine HCl] is 13

====

EXPERIMENTAL DETAILS: Estimated solubilities of 2C-B HCl in solvents
EXPERIMENTAL CONTEXT: MeOH, organic solvent or mixture, thermodynamic from solid
READOUT NAME: solubility (mg/mL)
One number for each entry, in mg/mL.

COc1cc(CCN)c(OC)cc1Br.Cl [2C-B HCl, 4-bromo-2,5-dimethoxyphenethylamine HCl] yielded solubility of 41

====

I'd be grateful if you could share measured DVS desorption weight loss, 95-5% RH for these entries.
EXPERIMENTAL DETAILS: Dynamic vapor sorption (DVS) with XRPD of the post-DVS sample
Format: physicochemical
EXPERIMENTAL CONTEXT: desorption 95-5% RH

COc1cc(CCN)c(OC)cc1Br.O=C(O)CC(O)(CC(=O)O)C(=O)O [Citrate (Form 2), 2C-B Citrate] :: 95-5% RH: 0.5% loss
COc1cc(CCN)c(OC)cc1Br.O=S(=O)(O)c1ccccc1 [Besylate (Form 1), 2C-B besylate] :: 95-5% RH: 0.7% loss
COc1cc(CCN)c(OC)cc1Br.O=C(O)C(O)C(O)C(=O)O [Tartrate (Form 1)] :: 95-5% RH: 0.1% loss

Kindly note the recorded DVS desorption weight loss, 95-5% RH for COc1cc(CCN)c(OC)cc1Br.O=C(O)c1cc(O)ccc1O [Gentisate, 2C-B gentisate] , which is 95-5% RH: 0.2% loss
